# Test system: bacterial inoculum
# condition_notes: 10 ppm glutaraldehyde with two moles of the nitrogen-containing compound to glutaraldehyde; time 20 days
observable: Growth / No Growth

# smiles_input, observable, recorded_measurement
rows = [
    ("CCNCC", "Growth / No Growth", "+"),
    ("Nc1ccccc1", "Growth / No Growth", "−"),
    ("OCCNCCO", "Growth / No Growth", "+"),
    ("NCCO", "Growth / No Growth", "+"),
]

====

# Tested on: bacterial inoculum
# condition_notes: 10 ppm glutaraldehyde with two moles of the nitrogen-containing compound to glutaraldehyde; time 9 days
observable: Growth / No Growth

# smiles_input, observable, recorded_measurement
rows = [
    ("Nc1ccccc1", "Growth / No Growth", "−"),
    ("OCCNCCO", "Growth / No Growth", "+"),
    ("CCNCC", "Growth / No Growth", "+"),
    ("NCCO", "Growth / No Growth", "+"),
]

From: patent US6849664B2
